experiment_summary: Cytotoxicity in CEM cells in the absence of virus
Format: cell-based
measurement_context: human, CEM (CCRF-CEM) cells; read-out: TC50 (the source's name)
Hi there, I'd appreciate the recorded CC50 for every entry that follows.

Name the reported CC50 value associated with the compound Cc1cc(SC2=C(O)OC(CCc3ccc(O)cc3)(c3ccccc3)CC2=O)c(C(C)(C)C)cc1CO (stereo not drawn) > 100 µM

Name the reported CC50 value associated with the compound COc1ccc(C2(CCc3ccc(O)cc3)CC(=O)C(Sc3cc(C)c(CO)cc3C(C)(C)C)=C(O)O2)cc1 (stereo not drawn) > 100 µM

Name the reported CC50 value associated with the compound Cc1cc(SC2=C(O)OC(CCc3ccccc3)(c3ccc(OCCO)cc3)CC2=O)c(C(C)(C)C)cc1O (stereo not drawn) 27 µM

----------
Target or system Human immunodeficiency virus type 1 protease (Human immunodeficiency virus 1); recorded quantity pIC50.
Scale note: pIC50 = -log10(concentration in M).

Name the reported pIC50 value associated with the compound Cc1cc(SC2=C(O)OC(CCc3ccc(O)cc3)(C3CCCCC3)CC2=O)c(C(C)(C)C)cc1CO (stereo not given) 8.39

Name the reported pIC50 value associated with the compound COc1cc(C(C)(C)C)c(SC2=C(O)OC(CCc3ccccc3)(c3ccccc3)CC2=O)cc1C (stereo not given) 7.82

Name the reported pIC50 value associated with the compound Cc1ccc(C(C)(C)C)c(SC2=C(O)OC(CCc3ccc(N)cc3)(c3ccccc3)CC2=O)c1 (stereo not given) 7.62

Name the reported pIC50 value associated with the compound Cc1cc(SC2=C(O)OC(CCc3cccc(N)c3)(c3ccccc3)CC2=O)c(C(C)(C)C)cc1CO (stereo not given) 8.40

Name the reported pIC50 value associated with the compound Cc1ccc(C(C)(C)C)c(SC2=C(O)OC(CCc3ccccc3)(c3ccc(N)cc3)CC2=O)c1 (stereo not given) 7.49

----------
experiment_summary: Cytotoxicity in CEM cells in the absence of virus
Format: cell-based
measurement_context: human, CEM (CCRF-CEM) cells; read-out: TC50 (the source's name)
# if measured CC50 < 50 µM: YES  # else: NO

I'd appreciate it if you could check whether COc1cc(C(C)(C)C)c(SC2=C(O)OC(CCc3ccccc3)(c3ccccc3)CC2=O)cc1C (centres undefined) has CC50 smaller than 50 µM. YES

I'd appreciate it if you could check whether Cc1cc(SC2=C(O)OC(CCc3ccc(O)cc3)(C(C)C)CC2=O)c(C(C)(C)C)cc1CO (centres undefined) has CC50 smaller than 50 µM. NO

I'd appreciate it if you could check whether Cc1cc(SC2=C(O)OC(CCc3ccc(N)cc3)(c3ccccc3)CC2=O)c(C(C)(C)C)cc1CO (centres undefined) has CC50 smaller than 50 µM. NO

I'd appreciate it if you could check whether Cc1ccc(C(C)(C)C)c(SC2=C(O)OC(CCc3ccc(N)cc3)(c3ccccc3)CC2=O)c1 (centres undefined) has CC50 smaller than 50 µM. NO

I'd appreciate it if you could check whether Cc1cc(SC2=C(O)OC(CCc3ccc(O)cc3)(C3CCCCC3)CC2=O)c(C(C)(C)C)cc1CO (centres undefined) has CC50 smaller than 50 µM. NO

I'd appreciate it if you could check whether Cc1cc(SC2=C(O)OC(CCc3cccc(O)c3)(c3ccccc3)CC2=O)c(C(C)(C)C)cc1CO (centres undefined) has CC50 smaller than 50 µM. NO

I'd appreciate it if you could check whether Cc1cc(SC2=C(O)OC(CCc3cccc(N)c3)(c3ccccc3)CC2=O)c(C(C)(C)C)cc1CO (centres undefined) has CC50 smaller than 50 µM. YES

I'd appreciate it if you could check whether Cc1cc(SC2=C(O)OC(CCc3ccc(N)cc3)(C(C)C)CC2=O)c(C(C)(C)C)cc1CO (centres undefined) has CC50 smaller than 50 µM. NO

I'd appreciate it if you could check whether Cc1cc(SC2=C(O)OC(CCc3ccccc3)(c3ccc(OCCO)cc3)CC2=O)c(C(C)(C)C)cc1OCCO (centres undefined) has CC50 smaller than 50 µM. YES
